- Test system: MS2 coat protein
- ASSAY PROTOCOL: apparent KD of MS2 coat protein; designed switch direction (-1 OFF switch, 1 ON switch): -1; higher = weaker reporter binding
- RUN PARAMETERS: input ligand: none
RECORDED METRIC: apparent KD of MS2 coat protein (µM)

ENTRY SEQUENCE	MEASURED
CACCUGAAGUCAGGAUAUCAUACAUGAGGAUCACCCAUGUAAUAAAUGAGAAUUUCGAAUGUAAUUGAGAAGGGACAAUAAGGC [Ostricism 97 - Jieux - Exclusion NG 2] (Eterna round: R96, puzzle: Exclusion NG 2)	0.0442
CGACGUAAAGGAUAUACAUGAGGAUCACCCAUGUCCCUACAAUGAGUAGGUACACGCAGUAGAAGGUUACUUCG [Eternabot (Original) Solution 15] (Eterna round: R97, puzzle: Exclusion 3)	0.037
